Where these numbers come from: PubChem BioAssay (NCI)

Assay: NCI Yeast Anticancer Drug Screen. Data for the rad50 strain (AID 155);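 note: 0% = growth of vehicle-only cultures of the same strain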
Conditions: S. cerevisiae rad50 strain growth inhibition; at 50.0 µM
This is part of a sample that, as a whole, favours compounds with a hit. Of some 79,000 tested, about 15% had one in any assay. Activity calls are given as the source filed them. Cut-off read from the data, not from the text of the source: active = growth inhibition above about 70%; inactive = the rest.
One label from this list, please: True = active, False = inactive

Query: Record lookup: outcome of this test for O=[N+]([O-])c1ccccc1SCc1ccccc1 ?
Reply: True

Query: Same question, NCC1CCNCC1 this time
Reply: False

Query: Field entry: O=C(O)c1ccc([N+](=O)[O-])cc1.[Ag]
Reply: True

Query: Same question, [Cl][Pt+2][Cl].[NH-]CC1(C[NH-])CCCC1 this time
Reply: False

Query: Another compound: CCc1nc(N)nc(N)c1-c1ccc(NCCc2ccccc2)c([N+](=O)[O-])c1
Reply: False

Query: Same question for O=[N+]([O-])c1ccc2nc(-c3ccc(Cl)cc3)[nH]c2c1 please.
Reply: True

Query: Can you check CCCCCCCCCCCCOP(=O)(N1CC1(C)C)N1CC1(C)C (configuration not stated) next?
Reply: True

Query: Also O=C(c1ccccc1)N(C1CCCCC1)C1CCCCC1 , if possible.
Reply: True

Query: Another compound to check: Cc1ccc(NC(=O)CCc2nnc(N)n2N)cc1
Reply: False

Query: What about this compound? Nc1nc(-c2ccccc2)cc(-c2ccccc2O)n1
Reply: False

Query: // repeat for N#Cc1ncc(Cl)cc1[N+](=O)[O-] and report
Reply: True

Query: Also OC(/C=C/c1ccccc1)(c1ccccc1)c1nc2ccccc2s1 (configuration not stated) ?
Reply: False

---

Assay: NCI Yeast Anticancer Drug Screen. Data for the bub3 strain (AID 167)
Conditions: S. cerevisiae bub3 mutant strain, at 5.0 µM (retest, dose inferred, filed as 0.5), hits give high values
Procedure: Growth inhibition of yeast strains with defined genetic alterations is measured as a screen for potential anti-cancer activity. Selected strains with alterations in DNA damage repair or cell cycle control were exposed to compounds and growth inhibition was measured relative to vehicle treated controls. The strain used in this assay is bub3
This is part of a sample that, as a whole, favours compounds with a hit. Of some 79,000 tested, about 15% had one in any assay.
parameter.measured: growth inhibition (%)
Respond numerically; units are % and should not be typed.

compound	readout.value
NC(=O)N/N=C1/CC2CCCCC2c2ccccc21 (stereo not given)	0
O=C1/C(=C/c2ccc([N+](=O)[O-])cc2)CNC/C1=C\c1ccc([N+](=O)[O-])cc1	90
CN(C)c1ccccc1CN1CCCN(Cc2ccccc2N(C)C)C1	2
CC(=O)Nc1ccc(N=C2c3ccccc3-c3ccc(NC(C)=O)cc32)cc1	-1
CN(Cc1ccccc1)CC(O)c1cc(-c2ccc(Cl)cc2)nc2ccccc12 (stereo not given)	7
CN(C)Cc1cc(C(C)(C)C)cc(C2CCCCC2)c1O	-6
Cc1cc(C)c2c(c1)sc1nncn12	70
O=C1c2cccc(S(=O)(=O)O)c2C(=O)c2cccc([N+](=O)[O-])c21	-1
COc1ccccc1NC(=O)/C(=C/c1ccccc1)C(C)=O	-2
OC(C(=Nc1ccccc1)c1ccccc1)c1ccccc1 (stereo not given)	15

Query: # lookup: growth inhibition of O=[N+]([O-])C1=Cc2ccccc2S(=O)(=O)CC1
Reply: -24

Query: # iterate: CCOC(=O)c1cc(Cc2ccccc2)c(=O)n(C)c1-c1ccccc1
Reply: 5
